Target: recombinant integrin α4β7 (Homo sapiens, UniProt P13612+P26010, DEL724-798)
Construct: purchased R&D Systems 5397-A3-050
Sequence (P13612 34-970 limits assumed): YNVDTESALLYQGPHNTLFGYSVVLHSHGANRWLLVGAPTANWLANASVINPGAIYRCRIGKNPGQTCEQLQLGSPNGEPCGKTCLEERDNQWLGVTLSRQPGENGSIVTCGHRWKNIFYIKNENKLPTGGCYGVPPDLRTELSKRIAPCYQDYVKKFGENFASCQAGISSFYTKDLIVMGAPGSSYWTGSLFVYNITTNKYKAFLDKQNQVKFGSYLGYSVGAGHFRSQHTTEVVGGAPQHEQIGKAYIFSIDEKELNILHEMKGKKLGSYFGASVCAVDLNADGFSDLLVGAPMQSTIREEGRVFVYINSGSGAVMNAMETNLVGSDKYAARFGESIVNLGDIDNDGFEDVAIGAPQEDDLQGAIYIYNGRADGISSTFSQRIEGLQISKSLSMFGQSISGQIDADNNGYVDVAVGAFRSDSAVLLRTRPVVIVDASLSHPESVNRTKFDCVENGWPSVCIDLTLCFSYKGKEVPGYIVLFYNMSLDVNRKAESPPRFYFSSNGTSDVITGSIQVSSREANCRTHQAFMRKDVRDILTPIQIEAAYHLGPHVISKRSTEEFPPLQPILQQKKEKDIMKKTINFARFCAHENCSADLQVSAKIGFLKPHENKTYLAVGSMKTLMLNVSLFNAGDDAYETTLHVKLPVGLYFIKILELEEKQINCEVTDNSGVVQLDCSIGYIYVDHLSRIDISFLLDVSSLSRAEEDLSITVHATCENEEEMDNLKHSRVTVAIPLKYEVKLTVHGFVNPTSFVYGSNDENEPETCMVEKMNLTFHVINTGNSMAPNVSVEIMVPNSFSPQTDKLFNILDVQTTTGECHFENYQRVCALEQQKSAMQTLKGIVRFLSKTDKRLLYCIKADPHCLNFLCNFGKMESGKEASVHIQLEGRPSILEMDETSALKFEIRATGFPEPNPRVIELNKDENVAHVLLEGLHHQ
Sequence (P26010 20-723 limits assumed): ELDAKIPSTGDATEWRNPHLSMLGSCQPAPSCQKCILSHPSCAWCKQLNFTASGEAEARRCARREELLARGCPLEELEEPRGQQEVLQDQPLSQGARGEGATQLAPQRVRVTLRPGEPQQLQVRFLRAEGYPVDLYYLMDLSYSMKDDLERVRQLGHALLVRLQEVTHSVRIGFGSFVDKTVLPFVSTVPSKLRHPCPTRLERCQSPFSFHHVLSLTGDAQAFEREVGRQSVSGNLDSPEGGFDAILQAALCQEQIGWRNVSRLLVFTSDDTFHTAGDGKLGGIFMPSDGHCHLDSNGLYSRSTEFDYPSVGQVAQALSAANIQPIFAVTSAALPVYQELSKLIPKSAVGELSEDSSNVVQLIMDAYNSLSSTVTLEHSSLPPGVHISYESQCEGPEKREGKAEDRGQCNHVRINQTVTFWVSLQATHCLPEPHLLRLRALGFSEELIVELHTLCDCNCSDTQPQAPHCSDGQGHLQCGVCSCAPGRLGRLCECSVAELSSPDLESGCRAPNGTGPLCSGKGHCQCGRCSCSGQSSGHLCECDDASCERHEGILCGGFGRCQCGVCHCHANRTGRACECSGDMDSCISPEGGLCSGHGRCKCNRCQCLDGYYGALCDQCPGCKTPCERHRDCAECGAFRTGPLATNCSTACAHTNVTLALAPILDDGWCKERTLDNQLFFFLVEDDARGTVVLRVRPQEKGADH
Assay: Integrin α4β7—MAdCAM-1 ELISA competition assay
Type: binding
Settings: read-out: ELISA α4β7 Assay IC50
The threshold is 9 nM. Values of IC50 beneath it are tagged 1; values meeting or exceeding it are tagged -1.

MOLECULE	GROUP
CC(C)C[C@@H]1NC(=O)C[C@H](CCCCN)N(C)C(=O)[C@H](CCCCNC(=O)CCCCCCCC(=O)NCCCC[C@@H]2NC(=O)[C@@H]3CCCN3[C@H](C(=O)NC(C)(C)C)[C@H](C)NC(=O)[C@H]([C@@H](C)O)NC(=O)[C@H](CC(=O)O)NC(=O)[C@H](CC(C)C)NC(=O)C[C@H](CCCCN)N(C)C2=O)NC(=O)[C@@H]2CCCN2[C@H](C(=O)NC(C)(C)C)[C@H](C)NC(=O)[C@H]([C@@H](C)O)NC(=O)[C@H](CC(=O)O)NC1=O [Compound 533]	1
CC(C)C[C@@H]1NC(=O)c2ccc(-c3ccc(N4CCN(C(=O)CCOCCOCCOCCOCCOCCOCCOCCOCCOCCOCCC(=O)N5CCN(c6ccc(-c7ccc8cc7CNC(=O)[C@@H]7CCCN7[C@H](C(=O)NC(C)(C)C)[C@H](C)NC(=O)[C@H]([C@@H](C)O)NC(=O)[C@H](CC(=O)O)NC(=O)[C@H](CC(C)C)NC8=O)cc6)CC5)CC4)cc3)c(c2)CNC(=O)[C@@H]2CCCN2[C@H](C(=O)NC(C)(C)C)[C@H](C)NC(=O)[C@H]([C@@H](C)O)NC(=O)[C@H](CC(=O)O)NC1=O [Compound 511]	-1
CC(C)C[C@@H]1NC(=O)c2ccc(-c3ccc(N4CCN(C(=O)c5ccc(-c6ccc(C(=O)N7CCN(c8ccc(-c9ccc%10cc9CNC(=O)[C@@H]9CCCN9[C@H](C(=O)NC(C)(C)C)[C@H](C)NC(=O)[C@H]([C@@H](C)O)NC(=O)[C@H](CC(=O)O)NC(=O)[C@H](CC(C)C)NC%10=O)cc8)CC7)cc6)cc5)CC4)cc3)c(c2)CNC(=O)[C@@H]2CCCN2[C@H](C(=O)NC(C)(C)C)[C@H](C)NC(=O)[C@H]([C@@H](C)O)NC(=O)[C@H](CC(=O)O)NC1=O [Compound 474]	-1
CC(C)C[C@@H]1NC(=O)c2ccc(-c3ccc(N4CCN(CC(=O)N5CCN(c6ccc(-c7ccc8cc7CNC(=O)[C@@H]7CCCN7[C@H](C(=O)NC(C)(C)C)[C@H](C)NC(=O)[C@H]([C@@H](C)O)NC(=O)[C@H](CC(=O)O)NC(=O)[C@H](CC(C)C)NC8=O)cc6)CC5)CC4)cc3)c(c2)CNC(=O)[C@@H]2CCCN2[C@H](C(=O)NC(C)(C)C)[C@H](C)NC(=O)[C@H]([C@@H](C)O)NC(=O)[C@H](CC(=O)O)NC1=O [Compound 481]	1
CC(C)C[C@@H]1NC(=O)c2ccc(-c3ccc(N4CCN(Cc5cccc(CN6CCN(c7ccc(-c8ccc9cc8CNC(=O)[C@@H]8CCCN8[C@H](C(=O)NC(C)(C)C)[C@H](C)NC(=O)[C@H]([C@@H](C)O)NC(=O)[C@H](CC(=O)O)NC(=O)[C@H](CC(C)C)NC9=O)cc7)CC6)c5)CC4)cc3)c(c2)CNC(=O)[C@@H]2CCCN2[C@H](C(=O)NC(C)(C)C)[C@H](C)NC(=O)[C@H]([C@@H](C)O)NC(=O)[C@H](CC(=O)O)NC1=O [Compound 499]	-1
CC(C)C[C@@H]1NC(=O)C[C@H](CCCCN)N(C)C(=O)[C@H](CCCCNC(=O)CCCCCCCCC(=O)NCCCC[C@@H]2NC(=O)[C@@H]3CCCN3[C@H](C(=O)NC(C)(C)C)[C@H](C)NC(=O)[C@H]([C@@H](C)O)NC(=O)[C@H](CC(=O)O)NC(=O)[C@H](CC(C)C)NC(=O)C[C@H](CCCCN)N(C)C2=O)NC(=O)[C@@H]2CCCN2[C@H](C(=O)NC(C)(C)C)[C@H](C)NC(=O)[C@H]([C@@H](C)O)NC(=O)[C@H](CC(=O)O)NC1=O [Compound 530]	1
CC(C)C[C@@H]1NC(=O)c2ccc(-c3ccc(N4CCN(C(=O)CCCCCCCCCCC(=O)N5CCN(c6ccc(-c7ccc8cc7CNC(=O)[C@@H]7CCCN7[C@H](C(=O)NC(C)(C)C)[C@H](C)NC(=O)[C@H]([C@@H](C)O)NC(=O)[C@H](CC(=O)O)NC(=O)[C@H](CC(C)C)NC8=O)cc6)CC5)CC4)cc3)c(c2)CNC(=O)[C@@H]2CCCN2[C@H](C(=O)NC(C)(C)C)[C@H](C)NC(=O)[C@H]([C@@H](C)O)NC(=O)[C@H](CC(=O)O)NC1=O [Compound 392]	-1
CC(C)C[C@@H]1NC(=O)c2ccc(-c3ccc(N4CCN(c5ncc([N+](=O)[O-])c(N6CCN(c7ccc(-c8ccc9cc8CNC(=O)[C@@H]8CCCN8[C@H](C(=O)NC(C)(C)C)[C@H](C)NC(=O)[C@H]([C@@H](C)O)NC(=O)[C@H](CC(=O)O)NC(=O)[C@H](CC(C)C)NC9=O)cc7)CC6)n5)CC4)cc3)c(c2)CNC(=O)[C@@H]2CCCN2[C@H](C(=O)NC(C)(C)C)[C@H](C)NC(=O)[C@H]([C@@H](C)O)NC(=O)[C@H](CC(=O)O)NC1=O [Compound 468]	-1
CC(C)C[C@@H]1NC(=O)c2ccc(-c3ccc(N4CCN(C(=O)CC[C@H](N)C(=O)N5CCN(c6ccc(-c7ccc8cc7CNC(=O)[C@@H]7CCCN7[C@H](C(=O)NC(C)(C)C)[C@H](C)NC(=O)[C@H]([C@@H](C)O)NC(=O)[C@H](CC(=O)O)NC(=O)[C@H](CC(C)C)NC8=O)cc6)CC5)CC4)cc3)c(c2)CNC(=O)[C@@H]2CCCN2[C@H](C(=O)NC(C)(C)C)[C@H](C)NC(=O)[C@H]([C@@H](C)O)NC(=O)[C@H](CC(=O)O)NC1=O [Compound 494]	-1
